Values were extracted from paper PMC7176092.

The compounds listed here are annotated with their concentration at 1 h.
Assay Name: In vivo mouse DMPK study, single 1 mg/kg subcutaneous dose
Measurement Conditions: male, CD1, mouse, plasma, sc, 1 mg/kg, 1.00 h; 1 mg/kg s.c.; n=3 mice; read-out: Plasma concentration, Mean
Value Kind: concentration at 1 h (ng/mL)

[[record]]
molecule_smiles = "Cc1cccc(NC(=O)CN2C(=O)CC(c3ccccc3)=Nc3ccccc32)c1C"
value_kind = "concentration at 1 h"
observed = 25.7

[[record]]
molecule_smiles = "Cc1ccc(-c2nnc(SCC(=O)Nc3nccs3)[nH]2)cc1"
value_kind = "concentration at 1 h"
observed = 43


====

Study System: human GPR17 (Homo sapiens)
Construct: HA; expressed in transfected cells
Sequence (Q13304 29-367): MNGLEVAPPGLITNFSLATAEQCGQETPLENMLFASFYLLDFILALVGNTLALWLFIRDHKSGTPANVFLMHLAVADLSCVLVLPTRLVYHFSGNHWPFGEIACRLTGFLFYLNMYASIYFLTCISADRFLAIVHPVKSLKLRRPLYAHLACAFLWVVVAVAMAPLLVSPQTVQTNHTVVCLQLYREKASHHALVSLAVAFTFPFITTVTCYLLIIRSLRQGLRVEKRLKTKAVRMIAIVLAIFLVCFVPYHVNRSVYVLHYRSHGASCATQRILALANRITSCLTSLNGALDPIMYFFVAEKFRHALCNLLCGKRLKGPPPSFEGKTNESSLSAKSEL
Assay Name: [35S]GTPγS binding assay
Assay type: biochemical
Measurement Conditions: vs basal; mean ± SEM
Value Kind: Emax (% vs basal) (%)

[[record]]
molecule_smiles = "Cc1nc2ccc(NC(=O)CSc3nnc(-c4ccccc4)[nH]3)cc2[nH]1"
units = "%"
observed = 144.8

[[record]]
molecule_smiles = "O=C(CSc1nnc2n(Cc3ccc(Cl)cc3)c3ccccc3n12)N1CCc2ccccc2C1"
units = "%"
observed = 153.7

[[record]]
molecule_smiles = "Cn1c(SCC(=O)Nc2ccc(Cl)cc2)nnc1-c1ccc(NC(=O)c2ccccc2)cc1"
units = "%"
observed = 160.0

[[record]]
molecule_smiles = "Cc1ccc(-c2nnc(SCC(=O)Nc3nccs3)[nH]2)cc1"
units = "%"
observed = 127.8

[[record]]
molecule_smiles = "COc1ccccc1-c1nnc(SCC(=O)Nc2nccs2)[nH]1"
units = "%"
observed = 136.2

[[record]]
molecule_smiles = "CCc1ccccc1-n1c(SCC(=O)Nc2ccccc2Cl)nnc1-c1ccccc1O"
units = "%"
observed = 135.0

[[record]]
molecule_smiles = "Cc1cccc(NC(=O)CN2C(=O)CC(c3ccccc3)=Nc3ccccc32)c1C"
units = "%"
observed = 147.5


====

Study System: CCR3 (Homo sapiens)
Sequence (P51677 1-355): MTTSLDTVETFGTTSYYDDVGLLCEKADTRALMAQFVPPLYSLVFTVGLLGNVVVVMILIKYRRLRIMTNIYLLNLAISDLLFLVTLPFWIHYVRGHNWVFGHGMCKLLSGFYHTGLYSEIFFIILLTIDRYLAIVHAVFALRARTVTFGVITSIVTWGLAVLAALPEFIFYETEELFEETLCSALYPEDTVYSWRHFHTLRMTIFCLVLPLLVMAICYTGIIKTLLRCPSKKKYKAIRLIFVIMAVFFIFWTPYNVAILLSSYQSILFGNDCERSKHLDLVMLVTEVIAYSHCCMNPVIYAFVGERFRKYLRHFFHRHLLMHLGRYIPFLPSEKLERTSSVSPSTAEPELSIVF
Assay Name: Cellular functional assay CCR3
Measurement Conditions: reference antagonist
Value Kind: IC50 (nM)

[[record]]
compound = "CC[N+]1(C/C2=C/CCCCCC2)CCC(NC(=O)C2c3cc(Cl)ccc3Oc3ccc(Cl)cc32)CC1 (stereo not shown) [Compound J113863, J113863, reference compound]"
observed = 8.9


====

Study System: mGluR5 (Homo sapiens, UniProt P41594)
Construct: Eurofins Cerep (external service)
Sequence (P41594 21-1212): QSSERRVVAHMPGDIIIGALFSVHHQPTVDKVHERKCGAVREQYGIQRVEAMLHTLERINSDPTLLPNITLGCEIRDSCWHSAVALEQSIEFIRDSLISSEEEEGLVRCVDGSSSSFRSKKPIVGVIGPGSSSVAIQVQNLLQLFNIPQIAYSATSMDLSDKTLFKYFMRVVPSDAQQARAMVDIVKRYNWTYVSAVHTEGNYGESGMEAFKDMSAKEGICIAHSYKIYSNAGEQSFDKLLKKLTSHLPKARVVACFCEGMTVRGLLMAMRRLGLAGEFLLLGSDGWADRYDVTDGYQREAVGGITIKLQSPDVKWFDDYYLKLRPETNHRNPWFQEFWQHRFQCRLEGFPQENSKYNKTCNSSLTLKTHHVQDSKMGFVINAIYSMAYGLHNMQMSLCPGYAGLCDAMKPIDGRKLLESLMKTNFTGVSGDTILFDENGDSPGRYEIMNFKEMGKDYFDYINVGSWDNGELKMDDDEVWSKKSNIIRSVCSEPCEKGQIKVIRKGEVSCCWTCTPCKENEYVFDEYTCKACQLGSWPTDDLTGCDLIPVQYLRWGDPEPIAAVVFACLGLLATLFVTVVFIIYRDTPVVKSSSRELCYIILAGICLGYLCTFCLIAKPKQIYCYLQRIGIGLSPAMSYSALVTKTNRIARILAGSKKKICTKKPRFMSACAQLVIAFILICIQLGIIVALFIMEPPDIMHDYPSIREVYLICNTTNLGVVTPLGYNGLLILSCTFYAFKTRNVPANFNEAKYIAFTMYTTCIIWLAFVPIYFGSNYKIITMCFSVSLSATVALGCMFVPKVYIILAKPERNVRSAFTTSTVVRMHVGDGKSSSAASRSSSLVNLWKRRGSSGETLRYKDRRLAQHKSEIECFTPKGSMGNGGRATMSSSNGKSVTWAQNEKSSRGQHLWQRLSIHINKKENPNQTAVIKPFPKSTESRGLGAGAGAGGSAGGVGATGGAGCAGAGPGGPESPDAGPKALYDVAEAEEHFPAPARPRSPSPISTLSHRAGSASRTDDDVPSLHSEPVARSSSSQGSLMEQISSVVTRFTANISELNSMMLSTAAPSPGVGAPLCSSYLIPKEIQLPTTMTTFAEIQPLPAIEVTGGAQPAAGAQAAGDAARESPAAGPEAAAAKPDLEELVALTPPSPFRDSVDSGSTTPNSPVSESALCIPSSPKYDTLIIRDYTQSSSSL
Assay Name: Binding assay mGluR5
Measurement Conditions: reference compound
pIC50: −log10 of the molar value.
Value Kind: pIC50

[[record]]
molecule = "N[C@@H](Cn1oc(=O)[nH]c1=O)C(=O)O [L-Quisqualate, reference compound]"
value_kind = "pIC50"
observed = 7.17

